Data provenance is FireProtDB (doi:10.1021/bi00102a015).

B1: Cytochrome c2, P00094 (parent)
chain: MKISLTAATVAALVLAAPAFAGDAAKGEKEFNKCKTCHSIIAPDGTEIVKGAKTGPNLYGVVGRTAGTYPEFKYKDSIVALGASGFAWTEEDIATYVKDPGAFLKEKLDDKKAKTGMAFKLAKGGEDVAAYLASVVK

variants of: B1; conditions: Rhodobacter capsulatus (strain ATCC BAA-309 / NBRC 16581 / SB1003); pH 7.5; 25 °C; GdnHCl; CD; Tris-HCl 20 mM; NaCl 40 mM; structure 1C2R; whole UniProt chain shown
Parameter: unfolding free energy (kcal/mol)
Answers are plain numbers, in kcal/mol.

# Variant string, unfolding free energy / kcal/mol
records = [
    ("K35E K53E", 3.6),
    ("K33D", 3.3),
    ("K53E", 4.8),
]

API: the following record is the query input.
Data request: Param item = K35E ; retrieve measured unfolding free energy.
Data returned: 3.5
